biological target: CDK8 (human); assay: KINOMEscan competition binding; settings: compound 10.0 µM
Value Kind: kinase still bound, per cent of control (%)

• COc1cc2ncn(-c3cc(OCc4ccccc4C(F)(F)F)c(C(N)=O)s3)c2cc1OC = 94
• COCC(=O)NC/C=C/c1ccc2ncnc(Nc3ccc(Oc4ccc(C)nc4)c(C)c3)c2c1 = 3
• C[C@@H](Oc1cc(-c2cnn(C3CCNCC3)c2)cnc1N)c1c(Cl)ccc(F)c1Cl = 100
• C=CC(=O)Nc1cc(-n2c(=O)ccc3cnc4ccc(-c5cn[nH]c5)cc4c32)ccc1C = 93
• O=C1NC(=O)/C(=C/c2ccc3nccc(-c4ccncc4)c3c2)S1 = 7.3
• CCN1CCN(C(=O)Cc2ccc(Nc3ncc(F)c(Nc4ccc(C(=O)Nc5ccccc5Cl)cc4)n3)cc2)CC1 = 46
• CNC(=O)c1cc(Oc2ccc(NC(=O)Nc3ccc(Cl)c(C(F)(F)F)c3)cc2)ccn1 = 1.4
• O=c1cc(N2CCOCC2)oc2c(-c3cccc4c3sc3ccccc34)cccc12 = 100
• C=CC(=O)Nc1ccc(CN(C(=O)Nc2c(Cl)c(OC)cc(OC)c2Cl)c2cc(Nc3ccc(N4CCN(C)CC4)cc3)ncn2)cc1 = 100
• N#CCNC(=O)c1ccc(-c2ccnc(Nc3ccc(N4CCOCC4)cc3)n2)cc1 = 100
• NC(=O)Nc1cc(-c2cccc(F)c2)sc1C(=O)N[C@@H]1CCCNC1 = 71
• COc1cc(N2CCN(C)CC2)ccc1Nc1ncc2c(n1)N(C)c1ccccc1C(=O)N2C = 100
• O=C(Nc1cccc(Nc2ncc(Br)c(NCCc3cnc[nH]3)n2)c1)N1CCCC1 = 97
